tested on: M14 melanoma; test: NCI-60 one-dose screen, 48 h (100 = growth as untreated, 0 = no growth, -100 = all killed); conditions: 10 µM unless noted
This is part of a sample that, as a whole, favours compounds with a hit. Of some 83,000 tested, about 20% had one in any assay.
propertyName: growth (%)

compound | propertyName | reading
C#C[C@@]1(O)[C@@H](CO)O[C@@H](n2cc(Br)c3c(N)ncnc32)[C@@H]1O | growth | 0.212
COc1cc(/C=C/C(=O)c2ccc(NC(=O)CSc3nnc(-c4cc(OC)c(OC)c(OC)c4)n3-c3ccccc3)cc2)cc(OC)c1OC | growth | -9.25
COc1cc(NC(=O)c2cc(O)c(C/C=C(\C)CCC=C(C)C)c(O)c2)cc2c1O[C@]1(C)CC[C@@H](O)C(C)(C)[C@H]1C2 | growth | -15.4
O=C1c2ccccc2C(=O)c2c1oc1c2c(=O)[nH]c2ccccc21 | growth | 73.4
O=c1cc(/C=N\Nc2nc(-c3ccc(Cl)cc3Cl)cs2)c2cc(Cl)ccc2o1 | growth | 91.4
COC(=O)CCc1cc(O)c2c(c1)[C@@H](C(=O)OC)[C@H](c1ccc(O)c(O)c1)O2 | growth | 32.5
N#Cc1c(NC(=O)c2cccs2)[n+]([O-])c2cc(C(F)(F)F)ccc2[n+]1[O-] | growth | 116
CCN(CC)c1ccc2c(c1)Oc1nc(N)c(C#N)c(N)c1C2Sc1ccc(OC)cc1 (stereo not drawn) | growth | -16.2
CCO/C=N/S(=O)(=O)c1cc2c(cc1Cl)NC=NS2(=O)=O | growth | 101
O=c1c2ccccc2oc2ccc(OCCCCCCN3CCCCCC3)cc12 | growth | -32
S=C(Nc1ccc(Cl)cc1)c1ccccn1 | growth | 103
C[C@H]1[C@H](C)CC[C@]2(C(=O)OCCOCCOCC[P+](c3ccccc3)(c3ccccc3)c3ccccc3)CC[C@]3(C)C(=CC[C@@H]4[C@@]5(C)CC[C@H](OC(=O)C(Cl)Cl)C(C)(C)[C@@H]5CC[C@]43C)[C@H]12 | growth | 8.99
O=C(/C(=C/c1ccc([N+](=O)[O-])cc1)SCc1ccccc1)c1ccc(Cl)cc1 | growth | 67.3
Cc1nnc(/N=C2\NC(=O)/C(=C/c3ccsc3)S2)s1 | growth | 92
C=CCn1c(SCC(=O)Nc2ccc(C(=O)/C=C/c3ccc(Cl)cc3)cc2)nnc1-c1cc(OC)c(OC)c(OC)c1 | growth | 93.9
COc1ccc(-c2[nH]c3ccccc3c2C=C(C#N)C#N)cc1 | growth | 1.05
COC1=CC2C=C(C3N(c4ccccc4)NC(=O)[C@@H]4CCCN34)C(=O)NC2C=C1 (stereo partly drawn) | growth | 101
COC(=O)[C@]1(C)CCC[C@]2(C)[C@H]3C[C@H]4C(C(C)C)=C[C@]3(CC[C@H]21)[C@@H]1C(=O)N(CCC#N)C(=O)[C@@H]14 | growth | 83.1
